- System: DeltatarO mutant
- assay_overview: S. aureus survival, RN4220 and DeltatarO strains – OD600, teichoic acid synthesis inhibitors, primary screen (AID 463173)
- measurement_setup: S. aureus RN4220 wild type/DeltatarO growth, OD600, 18 h, screened at 18.75 µg/mL (by protocol)
About 4,300 (8.3%) of roughly 52,000 compounds were called active. Cut-off read from the data, not from the text of the source: active = survival mostly below about 52% (no sharp cut-off); inactive = mostly above about 56%. Many of the other results were omitted from the sample, so actives are more common in it than they were.
Valid outcomes are listed here; reply with one: true = active, false = inactive

Some solved entries appear below for comparison.
### Prompt Assay result, entry Cc1cccc(C(=O)OCc2cc(=O)n3nc(C4CCCCC4)sc3n2)c1 — outcome?
### Response false

### Prompt Would you mind doing CCC(=O)N1CCc2cc(Br)cc(S(=O)(=O)CCC(=O)NCCc3ccccc3)c21 as well?
### Response false

### Prompt Would you mind doing CC(C)NC(=O)CSc1nc(-c2ccco2)cc(C(F)(F)F)n1 as well?
### Response false

### Prompt Would you mind doing COc1ccc(N2CCN(CCCNC(=O)C3COc4ccccc4C3)CC2)cc1 (configuration not stated) as well?
### Response false

Others:
### Prompt Assay result, entry O=C(CSc1nncn2c1cc1occc12)Nc1ccc(F)c(Cl)c1 — outcome?
### Response false

### Prompt Would you mind doing COc1ccc(NC(=O)CSc2nncn3c2cc2occc23)c(OC)c1 as well?
### Response false

### Prompt Would you mind doing Cc1nn2cc(-c3ccc(OC(C)C)cc3)nc2s1 as well?
### Response false

### Prompt Would you mind doing Oc1ccc(-c2cccc(-c3ccc(O)cc3)c2)cc1 as well?
### Response true

### Prompt Would you mind doing CCc1ccccc1NC(=O)CSc1nncn2c1cc1oc(C)cc12 as well?
### Response false

### Prompt Would you mind doing CCc1c(C)sc(NC(=O)c2cc(-c3cccc(Cl)c3)on2)c1C#N as well?
### Response false

### Prompt Would you mind doing O=C(N/N=C/c1ccc(F)cc1)c1ccc(NC(=O)C2CC2)cc1 as well?
### Response false

### Prompt Would you mind doing Cc1nc2nc(NCc3cccc(Br)c3)[nH]n2c(=O)c1Cc1ccccc1 as well?
### Response false

### Prompt Would you mind doing O=C(O)c1nnc(Cl)c2ccccc12 as well?
### Response false

###

- Test system: DeltatarO mutant
- assay_overview: S. aureus survival, RN4220 and DeltatarO strains – OD600, teichoic acid synthesis inhibitors, primary screen (AID 463173)
- measurement_setup: S. aureus RN4220 wild type/DeltatarO growth, OD600, 18 h, stronger effect = lower value, screened at 18.75 µg/mL (by protocol)
The campaign covered roughly 52,000 compounds. About 4,300 (8.3%) were called active. The list comes from a sample in which actives are over-represented; it also holds close analogues and randomly drawn compounds.
Lab note: compare survival with 80%, writing 1 if less and 0 if equal or more.

### Prompt Below 80% on survival? Entry Cc1cccc(NC(=O)c2ccc(N(Cc3ccccc3)S(C)(=O)=O)cc2)c1
### Response 1

### Prompt Would you mind doing CC(=O)c1cccc(NC(=O)Cn2c(-c3cncs3)nc3ccccc32)c1 as well?
### Response 1

### Prompt Would you mind doing Cc1oc2ncn(C)c(=O)c2c1C(=O)N1CCN(c2ccc(Cl)cc2)CC1 as well?
### Response 1

We next turn to a different compound, shown below.
### Prompt Below 80% on survival? Entry CC(=O)N1c2ccc(S(=O)(=O)N3CCN(c4cc(Cl)ccc4C)CC3)cc2CC1C (stereo unspecified)
### Response 0

###

survival reference
- Test system: DeltatarO mutant
- assay_overview: S. aureus survival, RN4220 and DeltatarO strains – OD600, teichoic acid synthesis inhibitors, primary screen (AID 463173)
- measurement_setup: S. aureus RN4220 wild type/DeltatarO growth, OD600, 18 h, stronger effect = lower value, screened at 18.75 µg/mL (by protocol)
About 4,300 (8.3%) of roughly 52,000 compounds were called active. The full list was thinned out, with actives kept by preference.

### Prompt Fill blank: measured survival of the molecule Cn1c(=O)c2c(-c3ccccc3)n3c(c2n(C)c1=O)C(c1ccccc1[N+](=O)[O-])Nc1ccccc1-3 (stereo not drawn) is ____.
### Response 79% (inactive)

### Prompt Would you mind doing COc1ccc(C2Nc3ccccc3-n3c(-c4ccccc4)c4c(=O)n(C)c(=O)n(C)c4c32)cc1 (stereo not drawn) as well?
### Response 79% (inactive)

Now consider the entry below.
### Prompt Fill blank: measured survival of the molecule Cc1cccc(CN2C(=O)c3ccccc3S(=O)(=O)c3ccc(C(=O)NC4CCCCC4)cc32)c1 is ____.
### Response 79% (inactive)

###

- Test system: DeltatarO mutant
- assay_overview: S. aureus survival, RN4220 and DeltatarO strains – OD600, teichoic acid synthesis inhibitors, primary screen (AID 463173)
- measurement_setup: S. aureus RN4220 wild type/DeltatarO growth, OD600, 18 h, stronger effect = lower value, screened at 18.75 µg/mL (by protocol)
The whole screen tested about 52,000 compounds, of which about 4,300 (8.3%) were called active. This is one part of a sample in which actives are shown more often than they occur.
readout_type: survival (%)
Dear colleague, please return just the value in %, with no unit written.

Known results for molecules:
### Prompt Hello, I am looking for reported survival with DeltatarO mutant for Cc1ccc(NC(=O)C(C)n2nnc3sc4c(c3c2=O)CCCC4)cc1Cl (stereo not given) . Could you help?
### Response 82

### Prompt Would you mind doing COc1cccc(NC(=O)C2CCCN2S(=O)(=O)c2ccc3c(c2)n(C)c(=O)c(=O)n3C)c1 (stereo not given) as well?
### Response 87

### Prompt Would you mind doing N#C/C(=C\c1ccccc1F)c1nc2ccccc2c(=O)[nH]1 as well?
### Response 66

### Prompt Would you mind doing Cc1ccc(Cn2c(SCc3ccc(C(=O)N4CCCCC4)cc3)nc3ccncc32)cc1 as well?
### Response 7

Others:
### Prompt Hello, I am looking for reported survival with DeltatarO mutant for Cc1ccc(-n2nc3ccc(NC(=O)COc4ccccc4C)cc3n2)cc1 . Could you help?
### Response 72

### Prompt Would you mind doing Cc1cccc(NC(=O)CS(=O)(=O)c2nc(-c3ccccc3)cn2-c2cccc(Cl)c2)c1C as well?
### Response 63

### Prompt Would you mind doing COc1ccccc1CNC(=O)Cn1ncc2c(=O)oc3ccc(C)cc3c21 as well?
### Response 78

### Prompt Would you mind doing Cc1cc(C)cc(NC(=O)C2CCCN2S(=O)(=O)c2ccc3nc(-c4ccccc4)[nH]c3c2)c1 (stereo not given) as well?
### Response 38

### Prompt Would you mind doing Cc1cccc(NC(=O)C2CCCN2S(=O)(=O)c2ccc3nc(-c4ccccc4)[nH]c3c2)c1 (stereo not given) as well?
### Response 37

### Prompt Would you mind doing CCOC(=O)c1ccccc1NC(=O)COc1cc(=O)n(CC)c2ccccc12 as well?
### Response 53

### Prompt Would you mind doing COc1ccc(CNC(=O)c2ccc(CN3C(=O)C(C)=C(c4ccc(C)cc4)S3(=O)=O)cc2)cc1 as well?
### Response 89

### Prompt Would you mind doing CCc1cccc(NC(=O)COc2cc(=O)n(CC)c3ccccc23)c1 as well?
### Response 115

### Prompt Would you mind doing O=C(c1ccc(CSc2nc3ccncc3n2Cc2ccccc2)cc1)N1CCCCCC1 as well?
### Response 70

### Prompt Would you mind doing CCn1c2ccccc2c2cc(NC(=O)COc3ccc(C)cc3C)ccc21 as well?
### Response -5

### Prompt Would you mind doing Cc1ccc2nc(/C(C#N)=C/c3ccccc3F)[nH]c2c1 as well?
### Response 31

###

- Tested on: DeltatarO mutant
- assay_overview: S. aureus survival, RN4220 and DeltatarO strains – OD600, teichoic acid synthesis inhibitors, primary screen (AID 463173)
- measurement_setup: S. aureus RN4220 wild type/DeltatarO growth, OD600, 18 h, stronger effect = lower value, screened at 18.75 µg/mL (by protocol)
In all, about 52,000 compounds went through this assay and about 4,300 (8.3%) were called active. Shown is part of a subset that was picked to be rich in actives.
readout_type: survival

### Prompt Fill blank: measured survival of the compound Cc1ccccc1NC(=O)c1c(NC(=O)c2ccco2)sc2c1CCC(C(C)(C)C)C2 (configuration not stated) is ____.
### Response 74% (inactive)

### Prompt Would you mind doing Cc1ccccc1Nc1c(-c2ccc(N3CCOCC3)cc2)nc2ccc(Br)cn12 as well?
### Response 74% (inactive)

### Prompt Would you mind doing O=c1cc2nc(-c3ccccc3F)nc(SCc3ccc(Br)cc3)n2[nH]1 as well?
### Response 0% (active)

### Prompt Would you mind doing Cc1ccc(CNC(=O)c2ccccc2NC(=O)c2nsc3ccccc23)cc1 as well?
### Response 60% (inactive)

### Prompt Would you mind doing CCc1ccc(CNC(=O)c2cc3ccccn3n2)cc1 as well?
### Response 97% (inactive)

### Prompt Would you mind doing Cc1ccc(C)c(CSc2nc3ccncc3n2Cc2nc(-c3ccccc3Cl)oc2C)c1 as well?
### Response 71% (inactive)

### Prompt Would you mind doing CCOc1ccc(CNC(=O)c2cc3ccccn3n2)cc1 as well?
### Response 52% (active)

### Prompt Would you mind doing Cc1c(C)n(Cc2ccccc2)c2ccc(C(=O)NCCc3ccccc3Cl)cc12 as well?
### Response 84% (inactive)

### Prompt Would you mind doing Cc1ccc2nc(N3CCN(c4cccc(C)c4C)CC3)c3nncn3c2c1 as well?
### Response 39% (active)

### Prompt Would you mind doing Cc1cccc(OCC(=O)Nc2cccc(C(=O)OCc3cc(=O)n4c(C)csc4n3)c2)c1 as well?
### Response -5% (active)

Others:
### Prompt Fill blank: measured survival of the compound O=c1cc2nc(-c3ccccc3)nc(SCc3cccc(Br)c3)n2[nH]1 is ____.
### Response 98% (inactive)

### Prompt Would you mind doing Cc1ccc(CSc2nc3ccncc3n2Cc2nc(-c3ccc(Cl)cc3)oc2C)cc1 as well?
### Response 63% (inactive)
